B1: PLAGL1 (parent)
chain: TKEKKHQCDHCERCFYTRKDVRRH

variants of: B1; test: protein stability index of a GFP-peptide fusion (GPS, HEK-293T) (PSI 1-6); higher = more stable; details: c terminus: a fixed tail appended;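 note: lentivirally expressed fusions sorted by FACS into six bins by GFP to DsRed ratio, PSI derived from sequencing read proportions per bin multiplied by bin number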
assayReadout: protein stability index
Numbers only.

mutantCode: R13Q
protein stability index: 4.24

For each listed entry, give its protein stability index.
1. T17N
2. E12V
3. F15S
4. C11F

1. 3.7
2. 3.24
3. 3.05
4. 3.27
